Origin of the recorded values: ChEMBL document CHEMBL1157539

System: Plasmodium falciparum
Assay name: GSK_TCMDC: Inhibition of Plasmodium falciparum Dd2 in whole red blood cells, using parasite LDH activity as an index of growth. Test compounds present at 2uM
Format: functional
Endpoint name: Inhibition (%)
Form entry: value (%) — number only.

Form field - read-out: Inhibition; system: Plasmodium falciparum; submitted item: `Cc1cccc2nc(-c3ccc(-c4ccc(CN5CCC(C(N)=O)CC5)cc4)s3)[nH]c12.O=C(O)C(F)(F)F`
51

`COc1cc(OC)cc(-c2nnc(Sc3ccc(C#N)c([N+](=O)[O-])c3)n2C)c1` ?
77

`CCCCc1cc(NCC)nc(Nc2ccc(OC)cc2)n1` ?
32

`COC(=O)c1c(NC(=O)c2cccc(C(F)(F)F)c2)sc2c1CCN(Cc1ccccc1)C2.Cl` ?
61

`Cc1cc(O)c(C(C)C)cc1C1(c2cc(C(C)C)c(O)cc2C)OC(=O)c2ccccc21` ?
18

====

Tested on: HepG2
Assay name: GSK_TCMDC: Percent inhibition of human HepG2 cell line. Test compounds present at 10uM.
Format: functional
Label scheme for Inhibition: category 1: < 5%; category 2: ≥ 5% and < 20%; category 3: ≥ 20%

Which bin should I file COc1ccccc1C1CCN(C2CCC(NC(=O)c3cc4cc(C(C)C)ccc4[nH]3)CC2)CC1 (stereo not given) under?
category 3

`COc1ccc(Nc2ncc(OC)c(Nc3ccccc3C(N)=O)n2)cc1N1CCN(C)CC1.O=CO` ?
category 3

`Cc1ccc(O)cc1Nc1ccnc2cc(-c3csc(CN(C)CCN(C)C)n3)ccc12` ?
category 1

`O=C(CSc1nc(-c2ccccc2Cl)ns1)Nc1ccc2c(c1)OCO2` ?
category 1

`COc1cc2c(Nc3cccc(NC(=O)c4ccccc4)c3)ncnc2cc1OCCCN1CCOCC1` ?
category 1

`CCc1ccc(C2=Nn3c(nnc3-c3cccs3)SC2)cc1` ?
category 2

`Cc1cc(=NN=Cc2ccc(Cl)cc2)c2cc(F)ccc2[nH]1` ?
category 2

`Cc1ncccc1C(=O)Nc1cccc(-c2cccc(-c3nc4cc(C(F)(F)F)ccc4[nH]3)c2)c1` ?
category 3

CCC(C)(C)C1CCc2nc(N)nc(N)c2C1.Cl (stereo not given) ?
category 3

`CCCOc1cccc(C(=O)N[C@@H](Cc2ccccc2)[C@H](O)CNCc2cccc(OC)c2)c1` ?
category 2

COc1ccc2c(c1)S(=O)(=O)N=C(N1CCCC1c1ccc(Cl)c(Cl)c1)N2C.O=C(O)C(F)(F)F (stereo not given) ?
category 1

O=C(O)C(F)(F)F.O=c1ccc2ccc(F)c3c2n1CC3CN1CCC(NCc2ccc(-c3cccc(Cl)c3)nc2)CC1 (stereo not given) ?
category 2

COc1ccc(C(=O)C2CC2CN(C)CC(O)c2cc(C)c(OC)cc2C)cc1.O=C(O)C(F)(F)F (stereo not given) ?
category 2

`O=C(Nc1ccc(F)cc1)NC1CCN(c2ccnc3cc(Cl)ccc23)CC1.O=C(O)C(F)(F)F` ?
category 2

`CC(=O)Nc1ccc(C(=O)Nc2cccc(-c3ccc(-c4nc5cc(F)ccc5[nH]4)s3)c2)cn1` ?
category 3

`COc1cccc2c(N/N=C/c3ccccc3[N+](=O)[O-])cc(C)nc12` ?
category 1

`O=C(NCCNc1ccnc(Nc2ccc(F)cc2)n1)c1cc2ccccc2s1` ?
category 1

`CCc1cc(Br)c(CNCCCNc2cc(=O)c3ccccc3[nH]2)s1.Cl` ?
category 2

`CN1CCCc2ccc(NC(=O)Nc3ccc(-c4ccccc4)cc3)cc2C1` ?
category 3
